Recorded measurements of PBM binding z-score, one per entry
System: FXR:RXRa (NR concentration 270 nM, RXRa partner concentration 90 nM)
Test: PBM binding z-score (relative to random genomic background probes); higher = stronger binding; sequences stand for … in GC…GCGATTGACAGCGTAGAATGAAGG
Answer with the value's number alone.

Worked cases, answers included:
sequence.input	measured.parameter	numeric.result
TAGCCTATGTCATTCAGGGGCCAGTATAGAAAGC	PBM binding z-score	-0.275
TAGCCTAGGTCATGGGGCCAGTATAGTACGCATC	PBM binding z-score	4.54
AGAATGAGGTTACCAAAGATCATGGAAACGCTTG	PBM binding z-score	2.05
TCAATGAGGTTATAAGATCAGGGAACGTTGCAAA	PBM binding z-score	1.62
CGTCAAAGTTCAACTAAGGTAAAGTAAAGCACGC	PBM binding z-score	6.88
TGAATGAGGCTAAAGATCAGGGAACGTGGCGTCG	PBM binding z-score	-0.481
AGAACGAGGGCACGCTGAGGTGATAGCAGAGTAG	PBM binding z-score	1.52
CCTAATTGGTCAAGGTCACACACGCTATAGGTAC	PBM binding z-score	4.21

The sequence listed as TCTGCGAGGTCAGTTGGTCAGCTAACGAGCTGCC shows PBM binding z-score equal to 4.64

The sequence listed as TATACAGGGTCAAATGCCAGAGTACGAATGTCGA shows PBM binding z-score equal to 7.66

The sequence listed as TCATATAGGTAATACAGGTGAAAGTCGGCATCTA shows PBM binding z-score equal to 1.2

The sequence listed as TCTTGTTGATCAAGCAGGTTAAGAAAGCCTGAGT shows PBM binding z-score equal to 0.36

The sequence listed as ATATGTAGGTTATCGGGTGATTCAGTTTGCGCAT shows PBM binding z-score equal to 0.87

The sequence listed as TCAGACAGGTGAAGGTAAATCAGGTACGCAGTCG shows PBM binding z-score equal to 1.69

The sequence listed as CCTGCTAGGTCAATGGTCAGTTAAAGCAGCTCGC shows PBM binding z-score equal to 3.02
